- target: mSPSB4ΔSB (murine)
- assay.overview: ITC; 100 μM peptide titrated into 10 μM mSPSB protein; 22 °C; 20 mM Tris, 150 mM sodium chloride, 2.5 mM calcium chloride, pH 8.0; single binding site model
measure.name: Kd (nM)
The reply should be a number in nM, with the unit left off.

Value lookup for Kd; key = AAANEINNNLPGGA (human prostate apoptosis response protein-4 (hPar-4), residues 64-77, L69I) [[L69I]hPar-4(64–77)]
55

Value lookup for Kd; key = AAANDINNNLPGGA (human prostate apoptosis response protein-4 (hPar-4), residues 64-77, E68D and L69I (DINNN motif as in VASA); also called double mutant; source: synthetic peptide (GenScript Corporation)) [[E68D,L69I]hPar-4(64–77)]
33

Value lookup for Kd; key = AAANDLNNNLPGGA (human prostate apoptosis response protein-4 (hPar-4), residues 64-77, E68D) [[E68D]hPar-4(64–77)]
47
